Biological target: T1, ClpS Variant 1 (Trp-binding ClpS variant), phage displayed
T1 construct: tested as phage; also called ClpS variant W1; W1; not shown: N-terminal FLAG tag of the phage display construct; C-terminal phage coat protein p3 of the phage display construct
T1 chain: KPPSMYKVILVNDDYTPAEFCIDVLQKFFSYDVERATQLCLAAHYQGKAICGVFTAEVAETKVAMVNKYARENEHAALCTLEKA
Experiment: competitive phage ELISA: W1 phage equilibrated with free peptide, then on immobilised Wpep(biotin)
pIC50: −log10 of the molar value.
recorded endpoint: pIC50

// pIC50 value for WSDGMFTAGSLI (also called Wpep) [non-biotinylated peptide XSDGMFTAGSLI, X = W] : ~6.00

Data provenance: patent US9566335
